- System: Mycobacterium tuberculosis Erdman (autoluminescent)
- method-summary: Einf, fitted maximum growth inhibition of three-drug combination (fraction); higher = stronger maximal inhibition
- assay-conditions: in vitro model: cholesterol 0.05 mM; time point: terminal (~4-5 doublings, model-specific)
metric: Einf
Please give only the number in your answer, with no unit.

Fill in Einf for record CC(=O)NC[C@H]1CN(c2ccc(N3CCOCC3)c(F)c2)C(=O)O1 [linezolid] + NC(=O)c1cnccn1 [pyrazinamide] + CO[C@H]1/C=C/O[C@@]2(C)Oc3c(C)c(O)c4c(O)c(c(/C=N/N5CCN(C)CC5)c(O)c4c3C2=O)NC(=O)/C(C)=C\C=C\[C@H](C)[C@H](O)[C@@H](C)[C@@H](O)[C@@H](C)[C@H](OC(C)=O)[C@@H]1C [rifampicin] 0.929

Fill in Einf for record CC(=O)NC[C@H]1CN(c2ccc(N3CCOCC3)c(F)c2)C(=O)O1 [linezolid] + COc1c(N2C[C@@H]3CCCN[C@@H]3C2)c(F)cc2c(=O)c(C(=O)O)cn(C3CC3)c12 [moxifloxacin] + O=[N+]([O-])c1cn2c(n1)OC[C@@H](OCc1ccc(OC(F)(F)F)cc1)C2 [pretomanid] 0.908

Fill in Einf for record COc1c(N2C[C@@H]3CCCN[C@@H]3C2)c(F)cc2c(=O)c(C(=O)O)cn(C3CC3)c12 [moxifloxacin] + NC(=O)c1cnccn1 [pyrazinamide] + CO[C@H]1/C=C/O[C@@]2(C)Oc3c(C)c(O)c4c(O)c(c(/C=N/N5CCN(C)CC5)c(O)c4c3C2=O)NC(=O)/C(C)=C\C=C\[C@H](C)[C@H](O)[C@@H](C)[C@@H](O)[C@@H](C)[C@H](OC(C)=O)[C@@H]1C [rifampicin] 0.868
